System: HT-1080
Assay: Cytotoxicity against HT1080 cells at 1.0 uM after 72 hrs
Assay type: functional
Conditions: Homo sapiens, HT-1080, 72 h
parameter: inhibition at 1 µM (%)
Write it as a number; the unit % goes unstated.

Worked cases, answers included:
compound	inhibition at 1 µM [%]
C[C@@H]1CC[C@@H](c2ccoc2)N2C[C@@]3(CC[C@@H]12)CS[C@@]1(CC[C@H]2[C@H](C)CC[C@@H](c4ccoc4)N2C1)C3	6.3
C[C@@H]1CC[C@@H](c2ccoc2)N2C[C@@]3(CC[C@@H]12)C[C@]1(CC[C@H]2[C@H](C)CC[C@@H](c4ccoc4)N2[C@@H]1O)CS3 [6'-HYDROXYTHIONUPHLUTINE B]	-7.3
C[C@@H]1CC[C@@H](c2ccoc2)N2C[C@](C)(O)CC[C@@H]12	-13.2
C[C@@H]1CC[C@@H](c2ccoc2)N2C[C@@]3(CC[C@@H]12)CS[C@@]1(CC[C@H]2[C@H](C)CC[C@@H](c4ccoc4)N2[C@@H]1O)C3	15.7
C[C@@H]1CC[C@@H](c2ccoc2)N2C[C@]3(CC[C@@H]12)C[S+]([O-])[C@]1(CC[C@H]2[C@H](C)CC[C@@H](c4ccoc4)N2C1)C3 (stereo partly specified)	-1.8

Would you kindly look at the next entry?
## Input Name the reported inhibition at 1 µM value associated with the compound C[C@@H]1CC[C@@H](c2ccoc2)N2C[C@@]3(CC[C@@H]12)C[S+]([O-])[C@]1(CC[C@H]2[C@H](C)CC[C@@H](c4ccoc4)N2C1)C3 (stereo partly specified)
## Output -8.1

* * *

System: HT-1080
Experiment: Cytotoxicity against HT1080 cells at 0.1 uM after 72 hrs
Type: functional
Details: Homo sapiens, HT-1080, 72 h
parameter: inhibition at 0.1 µM (%)
Write the answer as a number in %, unit excluded.

Reference set, count: 3
compound	reported value
COc1cc([C@H]2Oc3c(OC)cc(CCCO)cc3[C@@H]2CO)ccc1O [DIHYDRODEHYDRODICONIFERY ALCOHOL]	8.9
C[C@@H]1CC[C@@H](c2ccoc2)N2C[C@](C)(O)CC[C@@H]12 [NUPHAROLUTINE]	-12.9
C[C@@H]1CC[C@@H](c2ccoc2)N2[C@H]1CC[C@@]1(CS[C@@]3(CC[C@H]4[C@H](C)CC[C@@H](c5ccoc5)N4[C@@H]3O)C1)[C@H]2O	0.1

Turning now to a further compound:
## Input Which inhibition at 0.1 µM value is on record for C[C@@H]1CC[C@@H](c2ccoc2)N2C[C@]3(CC[C@@H]12)C[S+]([O-])[C@]1(CC[C@H]2[C@H](C)CC[C@@H](c4ccoc4)N2C1)C3 (stereo partly drawn) ?
## Output -0.4

* * *

Below, each of the molecules is paired with its reported inhibition at 10 µM value.
System: B16-F10
Experiment: Cytotoxicity against B16F10 cells at 10 uM after 72 hrs
Assay type: functional
Details: Mus musculus, B16-F10, 72 h
The answer is to be given in %; state only the numeric part.

Below, 8 molecules whose answers are already recorded.
molecule	inhibition at 10 µM / %
C[C@@H]1CC[C@@H](c2ccoc2)N2C[C@](C)(O)CC[C@@H]12	-0.9
C[C@@H]1CC[C@@H](c2ccoc2)N2C[C@@]3(CC[C@@H]12)CS[C@]1(CC[C@H]2[C@H](C)CC[C@@H](c4ccoc4)N2C1)C3	2.2
C[C@@H]1CC[C@@H](c2ccoc2)N2C[C@@]3(CC[C@@H]12)CS[C@@]1(CC[C@H]2[C@H](C)CC[C@@H](c4ccoc4)N2C1)C3	4.4
C[C@@H]1CC[C@@H](c2ccoc2)N2C[C@@]3(CC[C@@H]12)C[C@]1(CC[C@H]2[C@H](C)CC[C@@H](c4ccoc4)N2[C@@H]1O)CS3 [6'-HYDROXYTHIONUPHLUTINE B]	-4.8
COc1cc([C@H]2Oc3c(OC)cc(CCCO)cc3[C@@H]2CO)ccc1O [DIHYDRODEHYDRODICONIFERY ALCOHOL]	-6.5
C[C@@H]1CC[C@@H](c2ccoc2)N2C[C@@]3(CC[C@@H]12)CS[C@]1(CC[C@H]2[C@H](C)CC[C@@H](c4ccoc4)N2[C@@H]1O)C3 [6-HYDROXYTHIONUPHLUTINE B]	99.1
C[C@H]1CC[C@H]2[C@H](C)CC[C@@H](c3ccoc3)[N+]2([O-])C1 (some centres undefined)	4.1
CC[C@@]1(O)C(=O)OCc2c1cc1n(c2=O)Cc2cc3ccccc3nc2-1	98.1

## Input I am curious: what inhibition at 10 µM value has been reported for C[C@@H]1CC[C@@H](c2ccoc2)N2C[C@]3(CC[C@@H]12)C[S+]([O-])[C@]1(CC[C@H]2[C@H](C)CC[C@@H](c4ccoc4)N2C1)C3 (some centres undefined) ?
## Output 9.1

## Input Quick check: inhibition at 10 µM of C[C@@H]1CC[C@@H](c2ccoc2)N2C[C@@]3(CC[C@@H]12)C[S+]([O-])[C@]1(CC[C@H]2[C@H](C)CC[C@@H](c4ccoc4)N2C1)C3 (some centres undefined) ?
## Output 10.8

## Input Look up inhibition at 10 µM for this molecule: C[C@@H]1CC[C@H]2[C@H](C)CC[C@@H](c3ccoc3)N2C1 [(-)-7-EPI-DEOXYNUPHARIDINE]
## Output -7.9

## Input # inhibition at 10 µM lookup, item C[C@@H]1CC[C@@H](c2ccoc2)N2C[C@@]3(CC[C@@H]12)CS[C@@]1(CC[C@H]2[C@H](C)CC[C@@H](c4ccoc4)N2[C@@H]1O)C3
## Output 98.7

## Input Query: inhibition at 10 µM; subject: C[C@@H]1CC[C@@H](c2ccoc2)N2C[C@]3(CC[C@@H]12)CS[C@]1(CC[C@H]2[C@H](C)CC[C@@H](c4ccoc4)N2C1)C3
## Output 30.2

## Input Fill blank: measured inhibition at 10 µM of the molecule C[C@@H]1CC[C@@H](c2ccoc2)N2[C@H]1CC[C@@]1(CS[C@@]3(CC[C@H]4[C@H](C)CC[C@@H](c5ccoc5)N4[C@@H]3O)C1)[C@H]2O is ____.
## Output 54.8
